B1: TPR t1 (parent)
chain: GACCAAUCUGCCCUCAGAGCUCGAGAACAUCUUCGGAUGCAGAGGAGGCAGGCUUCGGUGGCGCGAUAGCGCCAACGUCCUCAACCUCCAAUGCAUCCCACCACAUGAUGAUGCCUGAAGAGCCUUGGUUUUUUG

variants of: B1; experiment: polymerase ribozyme fitness, log enrichment relative to wild type (log ratio); higher = more active; in vitro selection for triplet polymerase activity
# key: entry, value: polymerase ribozyme fitness (log ratio)

Mutation Label	polymerase ribozyme fitness (log ratio)
C13A A16U G120C	-0.322
C15U A37C C76G	-2.14
C56A A119U	-1.36
C53U C98U	-1.46
G48C G60A G93A	-0.836
C53G C72U	-1.04
C53A C85G	-1.17
A18U C49U A68U U92A U96A G110C	-7.53
G17A G71U G122A	-4.15
C8U C53U	0.0512
A29U C56U C73U	-1.33
G10U A16C C49U A118G C124A	-2.5
C49U C76G G113A	-1.81
C12U A50U	-1.64
